For each entry below, report its melting point value.

Q. Returns the measured melting point for the input molecule. Input: CCOC(=O)Cn1c(CC)nc2c(O)cccc21
A. 148 to 150 °C

Q. Returns the measured melting point for the input molecule. Input: CCCC(=O)OC[C@H]1O[C@@H](n2ccc(OCC)nc2=O)CS1 (relative stereo)
A. 59 to 61 °C

Q. Returns the measured melting point for the input molecule. Input: COc1cc(CN(C)Cc2ccccc2)ccc1NC(=O)Nc1cnc(C)cn1
A. 142 to 143 °C

Q. Returns the measured melting point for the input molecule. Input: COC(=O)c1cc(NC=O)c2cc(Cc3ccc(F)cc3)cnc2c1O
A. 217 to 219 °C

Q. Returns the measured melting point for the input molecule. Input: COCc1c(-c2ccon2)ncc2[nH]c3ccc(OCc4ccccc4)cc3c12
A. 123 to 126 °C

Q. Returns the measured melting point for the input molecule. Input: CN1CCN(c2nc3sc4c(NCCCN5CCOCC5)ncnc4c3c3c2COC(C)(C)C3)CC1
A. 90.6 to 92.4 °C

Q. Returns the measured melting point for the input molecule. Input: CC(C#N)(Cn1nnc2cc(Cl)ccc21)NC(=O)c1ccc(OC(F)(F)F)cc1 (configuration not stated)
A. 135 °C

Q. Returns the measured melting point for the input molecule. Input: N#Cc1ccc(-c2ccc(C(=O)O)s2)cc1
A. > 300 °C

Q. Returns the measured melting point for the input molecule. Input: CC1(C)Oc2ccc([N+](=O)[O-])cc2O1
A. 89 to 91 °C

Q. Returns the measured melting point for the input molecule. Input: COC(=O)C1(C(=O)O)CCc2cc(C3CCCCC3)c(Cl)cc21 (configuration not stated)
A. 139 to 142 °C

Q. Returns the measured melting point for the input molecule. Input: Cn1nc(C(F)(F)F)n(-c2ccc(F)cc2)c1=S
A. 94 to 96 °C

Q. Returns the measured melting point for the input molecule. Input: CCCC1=NC(=NOC(=O)NC)SC1(C)CC (configuration not stated)
A. 124 to 126 °C

Q. Returns the measured melting point for the input molecule. Input: CC1(C2CCCC2)Cc2cc(O)c(Cl)c(Cl)c2C1=O (configuration not stated)
A. 190 to 194 °C

Q. Returns the measured melting point for the input molecule. Input: O=C(Cc1ccccc1)OCCOC(=O)NC1(C(=O)O)CC1
A. 142 to 146 °C

Q. Returns the measured melting point for the input molecule. Input: Cc1cc(=O)c(-c2ccccc2)c(-c2ccc(S(N)(=O)=O)cc2)o1
A. 218 °C

Q. Returns the measured melting point for the input molecule. Input: CC1(C(=O)c2ccc(C(=O)O)cc2)CC1
A. 136 to 137 °C

Q. Returns the measured melting point for the input molecule. Input: Cc1cc(C)cc(C(=O)c2[nH]c(=O)[nH]c(=O)c2C(C)C)c1
A. 149 to 150 °C

Q. Returns the measured melting point for the input molecule. Input: N#CC(=CC=Cc1ccccc1)C(=O)O
A. 196 °C

Q. Returns the measured melting point for the input molecule. Input: CCCn1cnc2c(=O)[nH]c(N)nc21
A. > 300 °C

Q. Returns the measured melting point for the input molecule. Input: COc1ccc(C(C#Cc2ccccc2)Cc2ncc(C)o2)cc1OC1CCCC1 (racemic)
A. 103 to 104 °C

Q. Returns the measured melting point for the input molecule. Input: COc1ccc(/C=C/c2nc3c([nH]2)c(=O)n(C)c(=O)n3C)c(C)c1C
A. > 275 °C

Q. Returns the measured melting point for the input molecule. Input: CC(C)(C)NNC(=O)c1nn(-c2ccc(F)cc2F)c2c1C1CCC2C1 (configuration not stated)
A. 140 to 142 °C

---

For each entry below, report its melting point value.

Q. Returns the measured melting point for the input molecule. Input: Clc1ccc(C2=Nc3cccnc3Nc3ccccc32)cc1
A. 203 to 204 °C

Q. Returns the measured melting point for the input molecule. Input: CC(=O)NC1Cc2ccc(C(=O)CCCCCl)cc2C1 (stereo not given)
A. 106 to 108 °C

Q. Returns the measured melting point for the input molecule. Input: CCN1CCC2(CC1)c1ccccc1Sc1c(O)cccc12
A. 223 to 225 °C

Q. Returns the measured melting point for the input molecule. Input: CCCOc1ccc(S(=O)(=O)C(C)C)cc1-c1nc2c(CC)nn(C[C@@H]3CCCN3C(=O)OC(C)(C)C)c2c(=O)[nH]1
A. 141 to 143 °C

Q. Returns the measured melting point for the input molecule. Input: Cc1nc2ccccc2n1Cc1ccc(C(=O)O)cc1
A. 300 °C

Q. Returns the measured melting point for the input molecule. Input: N#Cc1cnn(-c2c(Cl)cc(Cl)cc2Cl)c1C=O
A. 152 °C

Q. Returns the measured melting point for the input molecule. Input: CCOP(=O)(Cc1ccc(-c2nc3cccc(Cl)c3o2)cc1)OCC
A. 92 to 93 °C

Q. Returns the measured melting point for the input molecule. Input: CC(=O)c1c(O)cccc1OCC(O)COc1ccc(Cl)cc1Cl (stereo not given)
A. 130 to 132 °C

Q. Returns the measured melting point for the input molecule. Input: NC(=O)c1nc(-c2cnc3nc[nH]c3c2)nc2c1[nH]c(=O)n2-c1ccccc1C(F)(F)F
A. 320 °C

Q. Returns the measured melting point for the input molecule. Input: ClC1=Nc2ccccc2Oc2cscc21
A. 215 to 217 °C

Q. Returns the measured melting point for the input molecule. Input: COc1ccc(C2c3[nH]c4ccccc4c3CCN2C(=O)C=Cc2ccccc2)cc1 (stereo not given)
A. 127 °C

Q. Returns the measured melting point for the input molecule. Input: O=C1NCN2CCC1CC2
A. 125 to 126 °C

Q. Returns the measured melting point for the input molecule. Input: COc1cccc2cc(CN(C)CCNC(=O)C34CC5CC(CC(C5)C3)C4)oc12
A. 156 to 158 °C

Q. Returns the measured melting point for the input molecule. Input: N#Cc1cnn2c(C(F)(F)F)cc(-c3ccc(F)cc3)nc12
A. 198 °C

Q. Returns the measured melting point for the input molecule. Input: NC(=O)c1cc(N)ccc1SSc1ccc(N)cc1C(N)=O
A. 188 to 190 °C

---

ENDPOINT NAME: melting point

Q. Returns the measured melting point for the input compound. Input: Cc1c2n(c3ccccc13)CCC(Br)C2=O (stereo not drawn)
A. 126 to 128 °C

Q. Returns the measured melting point for the input compound. Input: CCCCOc1nc(=O)n(C(=O)NC)s1
A. 108 °C

Q. Returns the measured melting point for the input compound. Input: CCOC(=O)c1cccc(Nc2ncnc3[nH]cc(C(=O)c4ccccc4)c23)c1
A. 256 to 258 °C

Q. Returns the measured melting point for the input compound. Input: CSC1C(=O)Nc2c(C(=O)c3ccc(F)cc3)cc(F)cc21 (stereo not drawn)
A. 171 to 172 °C

Q. Returns the measured melting point for the input compound. Input: COc1cc2c(cc1-n1cccc1)C(Nc1ccc(F)c(Cl)c1)=C(C#N)CN2
A. 192 to 194 °C

Q. Returns the measured melting point for the input compound. Input: COc1ccc(P(=O)(c2ccc(OC)cc2)c2ccc(OC)cc2)cc1
A. 145 °C

Q. Returns the measured melting point for the input compound. Input: CS(=O)C1C(O)C(CO)OC1n1ccc(=O)[nH]c1=O (stereo not drawn)
A. 219 to 221 °C

Q. Returns the measured melting point for the input compound. Input: Nc1ccc2c(c1)C(=O)N(C1CCN(Cc3ccccc3)CC1)C2=O
A. 216 to 218 °C

Q. Returns the measured melting point for the input compound. Input: Cc1cccc2c1nc(-c1c(F)cccc1F)n2S(=O)(=O)c1ccccc1
A. 134 to 135 °C

Q. Returns the measured melting point for the input compound. Input: CCOC(=O)COc1ccc2c(-c3ccccc3F)noc2c1Br
A. 130 to 131 °C

Q. Returns the measured melting point for the input compound. Input: O=C1OCCC1Oc1ccc(Cl)cc1[N+](=O)[O-] (stereo not drawn)
A. 136 to 140 °C

Q. Returns the measured melting point for the input compound. Input: COc1cc2c(cc1S(=O)(=O)c1ccc(C)cc1)[C@@H](N1CCCC1=O)[C@H](O)C(C)(C)O2 (relative stereo)
A. 263 to 265 °C

Q. Returns the measured melting point for the input compound. Input: CCCCCCCCCCCC(CC(=O)O)OC(C)=O (racemic)
A. 37 °C

Q. Returns the measured melting point for the input compound. Input: COCCCNCC(=O)Nc1ccc(C(=O)OC)cc1
A. 49 to 50 °C

Q. Returns the measured melting point for the input compound. Input: CC1(C)CC(OC(=O)NN)CC(C)(C)N1
A. 93 to 94 °C

Q. Returns the measured melting point for the input compound. Input: O=c1[nH]c2ncc(-c3ccc(F)cc3)nc2c(O)c1-c1c(F)cc(F)cc1F
A. 285 to 288 °C

Q. Returns the measured melting point for the input compound. Input: Cn1cc(-c2cc3cccnc3[nH]2)c2cc(C(=O)NC(C)(C)CO)ccc21
A. 161 to 162 °C

Q. Returns the measured melting point for the input compound. Input: COC(=O)COc1ccc(C(=O)CCN2CCN(c3ccncc3)CC2)cc1
A. 93 to 95 °C

Q. Returns the measured melting point for the input compound. Input: CSc1ccc(NC(C#N)c2ccc(C)cc2)cc1 (stereo not drawn)
A. 186 to 187 °C

Q. Returns the measured melting point for the input compound. Input: CCCCN(CCCOc1ccc2ccccc2c1)c1ccc(OC)cc1
A. 127 °C

Q. Returns the measured melting point for the input compound. Input: N#CCc1ccc(-c2coc3cc(O)c(O)cc3c2=O)cc1
A. 258 to 260 °C

Q. Returns the measured melting point for the input compound. Input: COc1ccc(C(=O)CCC2CCCCC2)c(OC)c1
A. 34 to 35 °C

Q. Returns the measured melting point for the input compound. Input: CCCCCCCCCCCCOC(C)c1ccc(-c2ccc(C(=O)O)cc2)cc1 (single isomer, unassigned; (+))
A. 70.5 °C

Q. Returns the measured melting point for the input compound. Input: Cc1cscc1-c1cccc2c1ccn2-c1ccnc(NC2CCC(C(=O)N3CCC(O)CC3)CC2)n1 (stereo not drawn)
A. 168 to 188 °C

Q. Returns the measured melting point for the input compound. Input: CC#CC(O)(Cn1cncn1)c1ccc(Oc2ccc(Cl)cc2)cc1Cl (stereo not drawn)
A. 137 °C

Q. Returns the measured melting point for the input compound. Input: Cc1cn2nc(-c3ccccc3)nc2cc1N
A. > 250 °C

Q. Returns the measured melting point for the input compound. Input: CC1(C)C(C=C(Cl)Cl)C1(C)C(=O)O (stereo not drawn)
A. 137 to 138 °C

Q. Returns the measured melting point for the input compound. Input: CC1(C)Nc2ccc(C#N)cc2C(NC(=NC#N)Nc2ccccc2)C1O (stereo not drawn)
A. 218 to 219 °C

Q. Returns the measured melting point for the input compound. Input: CS(=O)(=O)c1ccc(-c2sc(COc3ccc(Cl)cc3)nc2-c2ccc(F)cc2)cc1
A. 140 to 143 °C

Q. Returns the measured melting point for the input compound. Input: CN1CCC(C2(O)c3sccc3CCn3ccnc32)CC1 (stereo not drawn)
A. 177 °C

Q. Returns the measured melting point for the input compound. Input: COC(=O)CCC#Cc1cccc(Br)n1
A. 59 to 61 °C

Q. Returns the measured melting point for the input compound. Input: COc1ccc(CN2C(=O)[C@H]([C@@H](C)O)[C@H]2[C@@H]2COC(C)(C)O2)c(OC)c1
A. 145 to 146 °C

Q. Returns the measured melting point for the input compound. Input: CSc1nn2c(O)cc(C)nc2c1S(=O)(=O)c1ccc(C(C)C)cc1
A. 183 to 184 °C
